Assay: Confirmation and Secondary Assay for Modulators of Hemoglobin Beta Chain Splicing at IVS2 705 locus (AID 930);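 further: HeLa cells stably expressing the EGFP-705 splicing reporter; GFP fluorescence per well restored by corrected splicing of the IVS2-705 intron in EGFP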
Conditions: HeLa EGFP-705 splicing reporter, GFP fluorescence, 48 h; series mostly up to 38.3 µM
Calls of active or inactive are those of the source. The call rests on the fitted dose curve; in most records, active means well fitted activation curve with a large enough effect; inconclusive means small, poorly fitted or top-dose-only effect; inactive means flat fitted curve, though single readings scatter.
Observable: outcome

compound_smiles=CN(C)c1ccc(-c2ccc3ncnc(N4CCNCC4)c3c2)cc1 recorded_value=inactive
compound_smiles=c1nc(NC2CCNCC2)c2cc(-c3ccc4c(c3)OCO4)ccc2n1 recorded_value=inactive
compound_smiles=CN(C)c1ccnc(-c2ccccc2C(F)(F)F)n1 recorded_value=inactive
compound_smiles=COc1ccccc1CNc1ncnc2ccc(-c3ccccc3CN(C)C)cc12 recorded_value=inactive
compound_smiles=Cc1cnc(CNc2ncncc2-c2ccc(C(=O)N(C)C)cc2)cn1 recorded_value=inactive
compound_smiles=CC(C)=CCc1c2c(c3occ(-c4ccc(O)c(O)c4)c(=O)c3c1O)C=CC(C)(C)O2 recorded_value=inactive

Specify reported outcome for the compound shown: CS(=O)(=O)Nc1cccc(-c2cncnc2NCc2cccs2)c1
inactive

Specify reported outcome for the compound shown: COc1ccccc1-c1cncnc1Nc1ccc(F)cc1
inactive

Specify reported outcome for the compound shown: COc1cccc(-c2cncnc2NCc2ccccc2)c1
inactive

Specify reported outcome for the compound shown: Cc1cccc(CNc2ccnc(-c3cccnc3)n2)c1
inactive

Specify reported outcome for the compound shown: COc1cccc(-c2ccc3ncnc(NC4CCNCC4)c3c2)c1
inactive

Cited source: PubChem BioAssay (NCATS)
